biological target: Melanocortin receptor 5 (Homo sapiens, UniProt P33032); format: cell membranes, HEK293, Membrane; conditions: read-out: Ki; note: in other assays of this panel Not Active means under 50% inhibition at 10 µM
Sequence (P33032 whole entry): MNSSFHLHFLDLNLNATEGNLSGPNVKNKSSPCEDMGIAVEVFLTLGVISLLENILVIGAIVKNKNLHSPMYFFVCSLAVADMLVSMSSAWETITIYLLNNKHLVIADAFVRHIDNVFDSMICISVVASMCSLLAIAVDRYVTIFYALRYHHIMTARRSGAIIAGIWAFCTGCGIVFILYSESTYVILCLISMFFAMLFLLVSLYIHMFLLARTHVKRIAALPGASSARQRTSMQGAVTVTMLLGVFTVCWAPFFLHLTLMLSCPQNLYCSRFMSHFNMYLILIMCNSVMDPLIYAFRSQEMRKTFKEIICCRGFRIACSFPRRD
property_label: Ki (µM)

compound: Clc1ccc(COC(Cn2ccnc2)c2ccc(Cl)cc2Cl)c(Cl)c1 (stereo unspecified)
readout_value: 21.2

----------
target: Receptor-type tyrosine-protein phosphatase C (Homo sapiens); design: species or system Escherichia coli; note: in other assays of this panel Not Active means under 50% inhibition at 10 µM;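 note: inhibition of CD45 enzyme activity measured using DiFMUP as substrate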
Sequence (P08575 whole entry): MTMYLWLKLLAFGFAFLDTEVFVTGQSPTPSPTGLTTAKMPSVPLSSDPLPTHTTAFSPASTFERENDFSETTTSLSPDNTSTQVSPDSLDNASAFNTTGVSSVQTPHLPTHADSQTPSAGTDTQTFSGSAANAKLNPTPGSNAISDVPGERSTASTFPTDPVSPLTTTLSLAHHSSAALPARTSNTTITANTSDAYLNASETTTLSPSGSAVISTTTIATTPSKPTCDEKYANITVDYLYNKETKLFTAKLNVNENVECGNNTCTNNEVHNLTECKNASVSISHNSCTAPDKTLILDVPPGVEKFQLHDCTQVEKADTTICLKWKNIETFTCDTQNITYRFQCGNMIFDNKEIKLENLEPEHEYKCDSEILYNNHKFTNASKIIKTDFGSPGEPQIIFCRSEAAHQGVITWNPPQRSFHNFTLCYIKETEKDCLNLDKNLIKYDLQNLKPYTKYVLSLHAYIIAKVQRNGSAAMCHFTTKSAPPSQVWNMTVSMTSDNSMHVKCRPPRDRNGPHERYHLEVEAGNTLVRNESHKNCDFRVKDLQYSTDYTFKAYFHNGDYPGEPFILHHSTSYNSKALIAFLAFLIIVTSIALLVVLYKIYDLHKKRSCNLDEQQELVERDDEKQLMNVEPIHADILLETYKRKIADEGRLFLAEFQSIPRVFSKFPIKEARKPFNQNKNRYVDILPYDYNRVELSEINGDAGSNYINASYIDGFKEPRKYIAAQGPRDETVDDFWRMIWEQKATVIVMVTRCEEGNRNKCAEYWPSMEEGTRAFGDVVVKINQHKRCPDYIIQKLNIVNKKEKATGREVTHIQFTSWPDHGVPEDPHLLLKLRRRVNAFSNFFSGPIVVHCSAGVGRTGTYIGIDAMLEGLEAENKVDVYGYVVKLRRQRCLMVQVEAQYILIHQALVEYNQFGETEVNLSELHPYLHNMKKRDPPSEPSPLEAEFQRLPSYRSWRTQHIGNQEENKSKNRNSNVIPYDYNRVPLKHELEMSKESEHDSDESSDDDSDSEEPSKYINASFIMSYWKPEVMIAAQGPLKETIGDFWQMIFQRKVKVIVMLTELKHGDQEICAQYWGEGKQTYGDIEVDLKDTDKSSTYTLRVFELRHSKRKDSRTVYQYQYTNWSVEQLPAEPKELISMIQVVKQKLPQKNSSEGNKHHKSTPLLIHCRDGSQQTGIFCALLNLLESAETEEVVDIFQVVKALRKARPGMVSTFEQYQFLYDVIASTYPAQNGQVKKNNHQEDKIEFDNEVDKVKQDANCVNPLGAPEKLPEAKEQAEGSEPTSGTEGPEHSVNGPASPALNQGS

substance: TRANSPLATIN
Ki: Not Active
//
substance: COLISTIN
Ki: Not Active
//
substance: COBALTOUS CHLORIDE
Ki: Not Active
//
substance: ZIRCONIUM(IV) CHLORIDE
Ki: Not Active

----------
target: Adenosine receptor A2a (Homo sapiens); experiment: DRUGMATRIX: Adenosine A2A radioligand binding (ligand: […]); assay type: cell membranes, HEK293, Membrane; conditions: Not Active = under 50% inhibition at 10 µM; read-out: IC50
Sequence (P29274 whole entry): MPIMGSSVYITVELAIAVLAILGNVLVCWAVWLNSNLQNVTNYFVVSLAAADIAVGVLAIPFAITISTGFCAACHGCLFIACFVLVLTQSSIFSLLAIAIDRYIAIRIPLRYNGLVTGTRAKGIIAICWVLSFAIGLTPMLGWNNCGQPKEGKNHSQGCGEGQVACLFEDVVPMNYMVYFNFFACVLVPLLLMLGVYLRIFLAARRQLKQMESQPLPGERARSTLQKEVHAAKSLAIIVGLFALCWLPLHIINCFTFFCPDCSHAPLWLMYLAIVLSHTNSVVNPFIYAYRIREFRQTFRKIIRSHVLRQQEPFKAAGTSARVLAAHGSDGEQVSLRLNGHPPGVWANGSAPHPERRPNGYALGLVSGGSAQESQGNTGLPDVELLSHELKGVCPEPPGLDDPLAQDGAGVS

molecule: C[S+]([O-])c1ccc(-c2nc(-c3ccncc3)c(-c3ccc(F)cc3)[nH]2)cc1 (configuration not stated)
IC50: 6.07 µM

molecule: O=c1c(-c2ccc(O)cc2)coc2cc(O)cc(O)c12
IC50: 17.4 µM
